Each recorded value in this set is attributed to patent US11661431B2.

# Lookup of reported EC50 keyed by entry
Molecular target: TLR7 (Homo sapiens (Human))
Sequence (Q9NYK1 27-1049): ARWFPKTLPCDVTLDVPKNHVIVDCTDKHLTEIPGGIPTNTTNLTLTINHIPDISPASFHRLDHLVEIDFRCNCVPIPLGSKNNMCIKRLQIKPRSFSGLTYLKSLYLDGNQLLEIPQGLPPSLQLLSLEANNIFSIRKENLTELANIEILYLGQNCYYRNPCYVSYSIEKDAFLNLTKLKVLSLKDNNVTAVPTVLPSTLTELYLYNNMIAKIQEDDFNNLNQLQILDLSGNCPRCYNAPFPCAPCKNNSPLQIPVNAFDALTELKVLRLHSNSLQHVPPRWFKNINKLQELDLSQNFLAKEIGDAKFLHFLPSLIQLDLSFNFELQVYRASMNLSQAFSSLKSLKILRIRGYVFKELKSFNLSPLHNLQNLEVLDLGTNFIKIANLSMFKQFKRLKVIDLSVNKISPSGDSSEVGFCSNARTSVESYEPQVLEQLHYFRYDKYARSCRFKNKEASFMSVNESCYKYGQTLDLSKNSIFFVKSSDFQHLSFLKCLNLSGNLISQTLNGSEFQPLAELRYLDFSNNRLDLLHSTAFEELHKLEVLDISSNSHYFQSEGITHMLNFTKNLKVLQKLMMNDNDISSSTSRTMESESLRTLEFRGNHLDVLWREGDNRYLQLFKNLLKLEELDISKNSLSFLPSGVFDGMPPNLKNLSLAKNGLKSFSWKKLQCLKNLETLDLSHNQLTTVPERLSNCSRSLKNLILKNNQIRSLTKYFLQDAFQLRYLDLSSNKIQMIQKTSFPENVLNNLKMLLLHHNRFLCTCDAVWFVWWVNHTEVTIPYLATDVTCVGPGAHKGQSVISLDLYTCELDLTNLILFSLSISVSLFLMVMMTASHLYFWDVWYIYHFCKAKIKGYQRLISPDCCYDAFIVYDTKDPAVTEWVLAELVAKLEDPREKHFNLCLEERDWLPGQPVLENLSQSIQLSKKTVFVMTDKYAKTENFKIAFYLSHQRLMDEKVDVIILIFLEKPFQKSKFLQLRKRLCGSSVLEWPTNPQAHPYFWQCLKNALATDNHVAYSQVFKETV
Experiment: TLR7 human peripheral blood mononuclear cell (PBMC) cell-based assay (GS-986 as agonist; IL-6 and IFNα readout)
Conditions: human PBMCs, TLR7 agonist GS-986 at 400 nM, 6 hours, antagonist potency; read-out: TLR-7 EC50
Measure: EC50 (nM)

Cc1c(-c2[nH]c3sc([C@@H]4C[C@@H]5C[C@H]4CN5C(=O)[C@H]4C[C@H](F)CN4)c(C)c3c2C(C)C)cn2ncnc2c1C [Example 148]: 0.51
Cc1c(-c2[nH]c3sc([C@H]4C[C@@H]5C[C@H]4CN5CC(N)=O)c(C)c3c2C(C)C)cn2ncnc2c1C [Example 183]: 0.07
Cc1c(C2CCNCC2)sc2[nH]c(-c3cc(C)c4nnnn4c3)c(C(C)C)c12 [Example 251]: 0.13
Cc1c(-c2[nH]c3sc([C@@H]4C[C@@H]5C[C@H]4CN5CCS(=O)(=O)CCO)c(C)c3c2C(C)C)cn2ncnc2c1C [Example 307]: 0.21
Cc1cc(-c2[nH]c3sc(C4CCNCC4)c(C)c3c2C(C)C)cn(C)c1=O [Example 250]: 0.34
Cc1c(C2CC23CCN(CC(N)=O)CC3)sc2[nH]c(-c3cc(C)c4ncnn4c3)c(C(C)C)c12 (centres unmarked) [Example 211]: 5.08
Cc1c(-c2[nH]c3sc([C@@H]4C[C@@H]5C[C@H]4CN5CC(=O)NC[C@@H](F)C(C)(C)O)c(C)c3c2C(C)C)cn2ncnc2c1C [Example 273]: 1.24
Cc1c(-c2[nH]c3sc(C4CCN(C5CCCNC5=O)CC4)c(C)c3c2C(C)C)cn2ncnc2c1C (centres unmarked) [Example 286]: 0.94

----------
Molecular target: UniProt:Q9NR97
Assay: TLR8 human peripheral blood mononuclear cell (PBMC) cell-based assay (Compound A as agonist; TNFα and IL12p40 readout)
Details: human PBMCs, TLR8 agonist Compound A at 800 nM, 6 hours, antagonist potency; read-out: TLR-8 EC50
Procedure: After counting, the cell density was adjusted to 2 million cells/ml and incubated for 1 hour at 37° C., 5% CO2 for recovery. […] The level of cytokines (TNFα and IL12p40) in the supernatant was measured by electrochemiluminescence immunoassays (Mesoscale Discovery) following manufacturer's recommended protocols.
pEC50: −log10 of the molar value.
# class assignment by measured pEC50: b0 (below 8), b1 (8 to below 9), b2 (9 or more)

Cc1c(-c2[nH]c3sc(-c4cccc(C5CCNCC5)c4)c(C)c3c2C(C)C)cn2ncnc2c1C: b0
Cc1c(-c2[nH]c3sc(C4CCN(C5CCNC5=O)CC4)c(C)c3c2C(C)C)cn2ncnc2c1C (single isomer, unassigned) [Example 290]: b0
Cc1c(-c2[nH]c3sc(-c4cnc(C5CCNCC5)nc4)c(C)c3c2C(C)C)cn2ncnc2c1C: b1
Cc1cc(-c2[nH]c3sc(C4CCNCC4)c(C)c3c2C(C)C)cn(C)c1=O: b1
Cc1c(C2CCN(C(=O)[C@H]3CC(F)(F)CN3)CC2)sc2[nH]c(-c3cc(C)c4ncnn4c3)c(C(C)C)c12: b0
Cc1c(-c2[nH]c3sc(C4CCN(C(=O)C5COC(C(F)(F)F)CN5)CC4)c(C)c3c2C(C)C)cn2ncnc2c1C (stereo not drawn): b0
Cc1c(-c2[nH]c3sc([C@@H]4C[C@@H]5C[C@H]4CN5C4CC5(C4)CS(=O)(=O)C5)c(C)c3c2C(C)C)cn2ncnc2c1C: b2
CCc1c(C2CCN(CC(N)=O)CC2)sc2[nH]c(-c3cc(C)c4ncnn4c3)c(C(C)C)c12: b0
Cc1c(C2CCN(CC(N)=O)CC2)sc2[nH]c(-c3cc(C)c4nnnn4c3)c(C(C)C)c12: b0
Cc1c(-c2[nH]c3sc([C@@H]4C[C@@H]5C[C@H]4CN5CC#N)c(C)c3c2C(C)C)cn2ncnc2c1C: b2
Cc1c(C2CCN(C(=O)[C@@H]3COC(C)(C)CN3)CC2)sc2[nH]c(-c3cc(C)c4ncnn4c3)c(C(C)C)c12: b0
Cc1c(-c2[nH]c3sc(C4CCN(CC(N)=O)CC4)c(C)c3c2C(C)C)cn2ncnc2c1C: b1
Cc1cc(-c2[nH]c3sc(C4CCN(CC(N)=O)CC4)c(C(F)F)c3c2C(C)C)cn2ncnc12: b0
Cc1c(C2C3CN(CC(N)=O)CC32)sc2[nH]c(-c3cc(C)c4ncnn4c3)c(C(C)C)c12 (stereo not drawn): b1
Cc1c(-c2[nH]c3sc([C@@H]4C[C@@H]5C[C@H]4CN5CC(=O)N=S(C)(C)=O)c(C)c3c2C(C)C)cn2ncnc2c1C: b2
Cc1nc2c(C)cc(-c3[nH]c4sc(C5CCN(C(=O)[C@@H]6COCCN6)CC5)c(C)c4c3C(C)C)cn2n1: b0

----------
Biological target: TLR8 (Homo sapiens (Human), UniProt Q9NR97)
Sequence (Q9NR97 27-1041): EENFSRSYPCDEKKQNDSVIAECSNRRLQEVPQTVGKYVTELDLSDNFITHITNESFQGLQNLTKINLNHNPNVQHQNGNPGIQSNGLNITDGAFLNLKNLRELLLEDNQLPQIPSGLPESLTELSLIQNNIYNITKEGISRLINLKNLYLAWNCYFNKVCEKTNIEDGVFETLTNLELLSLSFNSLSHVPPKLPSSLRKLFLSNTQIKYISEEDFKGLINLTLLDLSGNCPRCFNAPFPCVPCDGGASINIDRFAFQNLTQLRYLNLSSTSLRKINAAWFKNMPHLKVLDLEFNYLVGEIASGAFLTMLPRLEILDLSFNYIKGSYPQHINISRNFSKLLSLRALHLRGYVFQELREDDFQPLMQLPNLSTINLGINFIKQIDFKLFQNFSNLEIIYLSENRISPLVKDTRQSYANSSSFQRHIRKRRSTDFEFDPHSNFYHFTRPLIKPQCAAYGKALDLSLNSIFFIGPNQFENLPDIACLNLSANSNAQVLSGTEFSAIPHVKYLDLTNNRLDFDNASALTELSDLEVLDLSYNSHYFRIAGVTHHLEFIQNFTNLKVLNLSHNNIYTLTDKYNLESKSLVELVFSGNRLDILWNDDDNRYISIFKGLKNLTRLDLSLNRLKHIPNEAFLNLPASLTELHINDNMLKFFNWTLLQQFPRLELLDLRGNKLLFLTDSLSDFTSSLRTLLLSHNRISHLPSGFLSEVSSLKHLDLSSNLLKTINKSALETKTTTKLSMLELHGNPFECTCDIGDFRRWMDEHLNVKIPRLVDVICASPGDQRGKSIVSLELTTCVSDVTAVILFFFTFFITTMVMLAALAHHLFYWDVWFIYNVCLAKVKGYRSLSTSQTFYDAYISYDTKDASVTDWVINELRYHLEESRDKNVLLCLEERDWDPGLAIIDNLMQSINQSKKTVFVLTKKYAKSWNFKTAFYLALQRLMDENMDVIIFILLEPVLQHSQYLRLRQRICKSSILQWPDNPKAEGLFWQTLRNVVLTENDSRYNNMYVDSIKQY
Test: TLR8 human peripheral blood mononuclear cell (PBMC) cell-based assay (Compound A as agonist; TNFα and IL12p40 readout)
Conditions: human PBMCs, TLR8 agonist Compound A at 800 nM, 6 hours, antagonist potency; read-out: TLR-8 EC50
pEC50: −log10 of the molar value.
Each entry below carries its recorded pEC50.
Measure: pEC50

Cc1c(-c2[nH]c3sc(C4CCC5(CC4)CNCCO5)c(C)c3c2C(C)C)cn2ncnc2c1C (stereo not shown) [Example 144]: 8.69
Cc1c(C2CC3(CCCN3CC(N)=O)C2)sc2[nH]c(-c3cc(C)c4ncnn4c3)c(C(C)C)c12 (stereo not shown): 8.46
Cc1c(C2CCC3(C2)CN(CC(N)=O)C3)sc2[nH]c(-c3cc(C)c4ncnn4c3)c(C(C)C)c12 (stereo not shown): 8.79
Cc1c([C@H]2C[C@H]3C[C@@H]2CN3CC(N)=O)sc2[nH]c(-c3cc(C)c4ncnn4c3)c(C(C)C)c12: 8.73
Cc1c(-c2[nH]c3sc([C@@H]4C[C@@H]5CC[C@H]4CN5Cc4cn(C)nn4)c(C)c3c2C(C)C)cn2ncnc2c1C (single isomer, unassigned): 8.28
Cc1cc(-c2[nH]c3sc(C(=O)N(C)[C@H]4CCNC4)cc3c2C(C)C)cn2ncnc12: 8.00
Cc1c(-c2[nH]c3sc([C@@H]4C[C@@H]5C[C@H]4CN5Cc4ccc(Br)cc4)c(C)c3c2C(C)C)cn2ncnc2c1C: 9.07
Cc1c(-c2[nH]c3sc(C4C[C@@H]5CN[C@H]4C5)c(C)c3c2C(C)C)cn2ncnc2c1C (stereo partly shown): 9.30
Cc1c(-c2[nH]c3sc(C4CC5(CCN(CC(N)=O)C5)C4)c(C)c3c2C(C)C)cn2ncnc2c1C (single isomer, unassigned) [Example 85]: 9.41
Cc1cc(-c2[nH]c3sc([C@H]4C[C@]5(CCCN(CC(N)=O)C5)C4)c(C)c3c2C(C)C)cn2ncnc12: 8.13

----------
Measured pEC50, listed per entry.
Target: TLR8 (Homo sapiens (Human), UniProt Q9NR97)
Assay: TLR8 human peripheral blood mononuclear cell (PBMC) cell-based assay (Compound A as agonist; TNFα and IL12p40 readout)
Settings: human PBMCs, TLR8 agonist Compound A at 800 nM, 6 hours, antagonist potency; read-out: TLR-8 EC50
pEC50: −log10 of the molar value.
Measure: pEC50

Cc1cc(-c2[nH]c3sc(C4CCNCC4)c(CO)c3c2C(C)C)cn2ncnc12: 7.87
Cc1c(-c2[nH]c3sc(C4CC(C(=O)N5CCNCC5)C4)c(C)c3c2C(C)C)cn2ncnc2c1C (centres unmarked) [Example 151]: 9.00
Cc1c(C2CCN(C(=O)CN3CCCC3)CC2)sc2[nH]c(-c3cc(C)c4ncnn4c3)c(C(C)C)c12: 8.35
Cc1c(-c2[nH]c3sc([C@@H]4C[C@@H]5C[C@H]4CN5C4CC5(CCNC5=O)C4)c(C)c3c2C(C)C)cn2ncnc2c1C (some centres unmarked): 9.21
Cc1c(-c2[nH]c3sc([C@@H]4C[C@@H]5C[C@H]4CN5)c(C)c3c2C(C)C)cn2ncnc2c1C: 9.96
Cc1c(-c2[nH]c3sc(C4C[C@@H]5C[C@H]4CC5N4CCNC(=O)C4)c(C)c3c2C(C)C)cn2ncnc2c1C (some centres unmarked): 8.12
Cc1c(-c2[nH]c3sc(C4C[C@@H]5C[C@H]4CN5CC(=O)N4CCC4)c(C)c3c2C(C)C)cn2ncnc2c1C (some centres unmarked): 9.62
Cc1c(C2CC3(CCNCC3)C2)sc2[nH]c(-c3cc(C)c4ncnn4c3)c(C(C)C)c12: 8.67
CNC(=O)CN1C[C@@H]2C[C@H]1C[C@H]2c1sc2[nH]c(-c3cn4ncnc4c(C)c3C)c(C(C)C)c2c1C: 9.77
Cc1c(-c2[nH]c3sc(C4CCN(C(=O)[C@H]5C[C@@]6(CN(CC(F)F)CCO6)C5)CC4)c(C)c3c2C(C)C)cn2ncnc2c1C: 7.91
Cc1c(C2C[C@H]3CNC[C@H]3C2)sc2[nH]c(-c3cc(C)c4ncnn4c3)c(C(C)C)c12 (single isomer, unassigned): 8.38
Cc1c(-c2[nH]c3sc(C4COC5(CCNCC5)C4)c(C)c3c2C(C)C)cn2ncnc2c1C (centres unmarked): 8.26
Cc1c(-c2[nH]c3sc([C@H]4C[C@@H]5C[C@H]4CN5)c(C)c3c2C(C)C)cn2ncnc2c1C: 8.54
Cc1c(-c2[nH]c3sc([C@H]4C[C@H]5C[C@@H]4CN5CC(N)=O)c(C)c3c2C(C)C)cn2ncnc2c1C: 9.09
Cc1c(-c2[nH]c3sc(C4CCN(C(=O)[C@@H]5C[C@@H]6OCC[C@@H]6N5)CC4)c(C)c3c2C(C)C)cn2ncnc2c1C: 7.96
Cc1c([C@H]2C[C@@H]3CN(CC(N)=O)C[C@@H]3C2)sc2[nH]c(-c3cc(C)c4ncnn4c3)c(C(C)C)c12: 8.23
Cc1c(C2CCCN(CC(N)=O)CC2)sc2[nH]c(-c3cc(C)c4ncnn4c3)c(C(C)C)c12 (single isomer, unassigned) [Example 262]: 8.34
Cc1c(-c2[nH]c3sc([C@@H]4C[C@@H]5C[C@H]4CN5CCS(C)(=O)=O)c(C)c3c2C(C)C)cn2ncnc2c1C: 9.21
Cc1c(C2CCN(CC(N)=O)CC2)sc2[nH]c(-c3cc(C)c4ncnn4c3)c(C(C)C)c12: 7.77
Cc1c(C2CC23CCN(CC(N)=O)CC3)sc2[nH]c(-c3cc(C)c4ncnn4c3)c(C(C)C)c12 (centres unmarked): 7.51
Cc1c([C@@H]2C[C@H]3CC[C@@H]2CN3CC(N)=O)sc2[nH]c(-c3cc(C)c4ncnn4c3)c(C(C)C)c12 (single isomer, unassigned): 8.06
Cc1c(-c2[nH]c3sc([C@@H]4C[C@@H]5C[C@H]4CN5)cc3c2C(C)C)cn2ncnc2c1C: 9.19
Cc1c(-c2[nH]c3sc(C4CCC(N5CC6(CCO6)C5)CC4)c(C)c3c2C(C)C)cn2ncnc2c1C (centres unmarked): 8.73
